pKd values for the binders below.
measurement target: wild type CXCL12 (stromal cell-derived factor-1/SDF-1) (UniProt P48061 22-93)
assay info: NMR titration
pKd here: minus log base 10 of the concentration, concentration in moles per litre.

Lookup: Recorded pKd for ISIYTSD (HELM PEPTIDE1{[ac].I.S.I.[O=C([C@H](Cc1ccc(OS(=O)(=O)O)cc1)N[*:1])[*:2]].T.S.D.[am]}$$$$V2.0; SMILES CC[C@H](C)[C@H](NC(C)=O)C(=O)N[C@@H](CO)C(=O)N[C@H](C(=O)N[C@@H](Cc1ccc(OS(=O)(=O)O)cc1)C(=O)N[C@H](C(=O)N[C@@H](CO)C(=O)N[C@@H](CC(=O)O)C(N)=O)[C@@H](C)O)[C@@H](C)CC) [4ISIsYTSD10, sTyr7 sulfopeptide of CXCR4] , please?
Found: 2.37

Lookup: Moving on to the next binder: SGDYDSM (HELM PEPTIDE1{[ac].S.G.D.[O=C([C@H](Cc1ccc(OS(=O)(=O)O)cc1)N[*:1])[*:2]].D.S.M.[am]}$$$$V2.0; SMILES CSCC[C@H](NC(=O)[C@H](CO)NC(=O)[C@H](CC(=O)O)NC(=O)[C@H](Cc1ccc(OS(=O)(=O)O)cc1)NC(=O)[C@H](CC(=O)O)NC(=O)CNC(=O)[C@H](CO)NC(C)=O)C(N)=O) [18SGDsYDSM24, sTyr21 sulfopeptide of CXCR4]
Found: 2.74

Lookup: Moving on to the next binder: SDNYTEE (HELM PEPTIDE1{[ac].S.D.N.[O=C([C@H](Cc1ccc(OS(=O)(=O)O)cc1)N[*:1])[*:2]].T.E.E.[am]}$$$$V2.0; SMILES CC(=O)N[C@@H](CO)C(=O)N[C@@H](CC(=O)O)C(=O)N[C@@H](CC(N)=O)C(=O)N[C@@H](Cc1ccc(OS(=O)(=O)O)cc1)C(=O)N[C@H](C(=O)N[C@@H](CCC(=O)O)C(=O)N[C@@H](CCC(=O)O)C(N)=O)[C@@H](C)O) [9SDNsYTEE15, sTyr12 sulfopeptide of CXCR4]
Found: 3.00

Further cases:
Lookup: Recorded pKd for Ac-SDNYTEE-NH2 [9SDNYTEE15, unsulfated Tyr12 peptide of CXCR4] , please?
Found: 2.68

Lookup: Moving on to the next binder: Ac-SGDYDSM-NH2 [18SGDYDSM24, unsulfated Tyr21 peptide of CXCR4]
Found: 2.57

Lookup: Moving on to the next binder: Ac-ISIYTSD-NH2 [4ISIYTSD10, unsulfated Tyr7 peptide of CXCR4]
Found: 2.72
